Target entity: Toll-like receptor 7 (Homo sapiens, UniProt Q9NYK1)
Sequence (Q9NYK1 whole entry): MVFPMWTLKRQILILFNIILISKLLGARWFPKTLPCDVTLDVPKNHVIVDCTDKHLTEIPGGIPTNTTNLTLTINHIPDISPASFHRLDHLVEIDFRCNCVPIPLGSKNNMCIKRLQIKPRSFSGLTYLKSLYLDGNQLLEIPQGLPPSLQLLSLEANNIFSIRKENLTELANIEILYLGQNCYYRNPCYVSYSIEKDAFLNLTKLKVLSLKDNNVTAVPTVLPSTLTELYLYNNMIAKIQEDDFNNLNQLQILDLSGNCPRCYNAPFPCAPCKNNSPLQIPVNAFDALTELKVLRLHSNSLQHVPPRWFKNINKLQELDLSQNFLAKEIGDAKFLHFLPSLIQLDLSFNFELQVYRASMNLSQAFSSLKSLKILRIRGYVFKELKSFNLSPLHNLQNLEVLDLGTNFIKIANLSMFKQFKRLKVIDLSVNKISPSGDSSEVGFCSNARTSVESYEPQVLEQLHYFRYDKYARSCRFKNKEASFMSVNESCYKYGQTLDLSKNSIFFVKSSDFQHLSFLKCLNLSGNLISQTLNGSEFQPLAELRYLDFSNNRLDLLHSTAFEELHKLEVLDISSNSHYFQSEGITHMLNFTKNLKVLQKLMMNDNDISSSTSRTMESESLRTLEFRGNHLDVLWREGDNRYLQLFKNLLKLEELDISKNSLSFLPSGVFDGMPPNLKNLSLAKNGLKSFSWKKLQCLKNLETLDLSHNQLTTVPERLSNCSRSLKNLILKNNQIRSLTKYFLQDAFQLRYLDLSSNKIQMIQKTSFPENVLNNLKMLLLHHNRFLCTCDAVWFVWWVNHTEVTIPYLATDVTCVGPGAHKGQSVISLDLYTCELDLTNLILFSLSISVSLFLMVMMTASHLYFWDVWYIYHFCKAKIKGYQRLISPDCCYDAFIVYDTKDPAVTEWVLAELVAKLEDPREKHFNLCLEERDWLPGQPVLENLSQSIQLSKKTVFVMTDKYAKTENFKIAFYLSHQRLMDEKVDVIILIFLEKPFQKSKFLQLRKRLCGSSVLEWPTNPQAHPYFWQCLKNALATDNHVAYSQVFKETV
Assay protocol: HEK Reporter Assay
pEC50: −log10 of the molar value.
Measured attribute: pEC50

> print(dat)
                                        mol  measurement
1  CCCNC(=O)C1=Cc2ccc(-c3cnc(CN)nc3)cc2N=C(N)C1         7.46
